Molecular target: human TLR7 (Homo sapiens)
Assay: TLR7 stimulation determined using HEK-Blue Detection
Type: cell-based
Parameters: expressed in transfected cells; host or cells: HEK293 (HEK-Blue hTLR7)
Conditions: HEK-Blue hTLR7 cells, HEK-Blue Detection (A77-A124), 16 hr, relative to Resiquimod maximum
Description: TLR7 Stimulation Determined Using HEK-Blue Detection This assay was designed for studying the stimulation of human TLR7 protein in HELK-Blue hTLR7 tool cell line by monitoring the activation of NF-κB. […] Levels of SLAP can be easily determined with HEK-Blue Detection, a cell culture medium that allows for real-time detection of SLAP. […] The hydrolysis of the substrate by SLAP produces a purple/blue color that can be measured with a spectrophotometer. […]

{"MOLECULE": "CCCC(CCO)Oc1nc(N)c2ncc(Cc3ccc(OCCNC)nc3)n2n1 (single isomer, unassigned) [Compound A81]", "EC50 / nM": 310}
{"MOLECULE": "CCCC(CCO)Oc1nc(N)c2ncc(Cc3ccc(OCCNC)cc3OC)n2n1 (single isomer, unassigned) [Compound A101]", "EC50 / nM": 0.78}
{"MOLECULE": "CCCC(CCO)Oc1nc(N)c2ncc(Cc3ccc(CCNC)cc3)n2n1 (centres unmarked) [Compound A95]", "EC50 / nM": 8}
{"MOLECULE": "CCCC(CCO)Oc1nc(N)c2ncc(Cc3ccc(OCCNC)cc3)n2n1 (single isomer, unassigned) [Compound A93]", "EC50 / nM": 1.7}
{"MOLECULE": "CCCC(CCO)Oc1nc(N)c2ncc(Cc3ccc(OCCNC)cc3F)n2n1 (centres unmarked) [Compound A97]", "EC50 / nM": 1}
{"MOLECULE": "CCCC(CCO)Oc1nc(N)c2ncc(Cc3ccc(OCCNC)c(F)c3)n2n1 (single isomer, unassigned) [Compound A106]", "EC50 / nM": 1.6}
{"MOLECULE": "CCCC(CCO)Oc1nc(N)c2ncc(Cc3ccc(CCNC)cc3)n2n1 (single isomer, unassigned) [Compound A119]", "EC50 / nM": 146}
{"MOLECULE": "CCCC(CCO)Oc1nc(N)c2ncc(Cc3cc(OCCNC)ccc3OC)n2n1 (single isomer, unassigned) [Compound A113]", "EC50 / nM": 24}
{"MOLECULE": "CCCC(CCO)Oc1nc(N)c2ncc(Cc3cccc(OCCNC)c3)n2n1 (single isomer, unassigned) [Compound A104]", "EC50 / nM": 10}
{"MOLECULE": "CCCC(CCO)Oc1nc(N)c2ncc(Cc3ccc(CCCNC)cc3)n2n1 (single isomer, unassigned) [Compound A110]", "EC50 / nM": 4}
{"MOLECULE": "CCCC(CCO)Oc1nc(N)c2ncc(Cc3cccc(OCCNC)c3OC)n2n1 (single isomer, unassigned) [Compound A118]", "EC50 / nM": 11}
{"MOLECULE": "CCCC(CCO)Oc1nc(N)c2ncc(Cc3ccc(OCCNC)nc3)n2n1 (centres unmarked) [Compound A79]", "EC50 / nM": 10}
{"MOLECULE": "CNCCOc1ccc(Cc2cnc3c(N)nc(OCC4CCOC4)nn23)cn1 (centres unmarked) [Compound A80]", "EC50 / nM": 446}
{"MOLECULE": "CCCC(CCO)Oc1nc(N)c2ncc(Cc3ccc(OCCNC)cc3Cl)n2n1 (single isomer, unassigned) [Compound A108]", "EC50 / nM": 0.8}
{"MOLECULE": "CCCC(C)Oc1nc(N)c2ncc(Cc3ccc(OCCNC)nc3)n2n1 (centres unmarked) [Compound A77]", "EC50 / nM": 19.2}
{"MOLECULE": "CCCC(CCO)Oc1nc(N)c2ncc(Cc3ccc(OCCNC)cc3C)n2n1 (single isomer, unassigned) [Compound A107]", "EC50 / nM": 1.3}
{"MOLECULE": "CCCC(CCO)Oc1nc(N)c2ncc(Cc3ccc(OCCNC)cc3)n2n1 (centres unmarked) [Compound A85]", "EC50 / nM": 4.5}

====

Target: human TLR7 (Homo sapiens, UniProt Q9NYK1)
Sequence (Q9NYK1 27-1049): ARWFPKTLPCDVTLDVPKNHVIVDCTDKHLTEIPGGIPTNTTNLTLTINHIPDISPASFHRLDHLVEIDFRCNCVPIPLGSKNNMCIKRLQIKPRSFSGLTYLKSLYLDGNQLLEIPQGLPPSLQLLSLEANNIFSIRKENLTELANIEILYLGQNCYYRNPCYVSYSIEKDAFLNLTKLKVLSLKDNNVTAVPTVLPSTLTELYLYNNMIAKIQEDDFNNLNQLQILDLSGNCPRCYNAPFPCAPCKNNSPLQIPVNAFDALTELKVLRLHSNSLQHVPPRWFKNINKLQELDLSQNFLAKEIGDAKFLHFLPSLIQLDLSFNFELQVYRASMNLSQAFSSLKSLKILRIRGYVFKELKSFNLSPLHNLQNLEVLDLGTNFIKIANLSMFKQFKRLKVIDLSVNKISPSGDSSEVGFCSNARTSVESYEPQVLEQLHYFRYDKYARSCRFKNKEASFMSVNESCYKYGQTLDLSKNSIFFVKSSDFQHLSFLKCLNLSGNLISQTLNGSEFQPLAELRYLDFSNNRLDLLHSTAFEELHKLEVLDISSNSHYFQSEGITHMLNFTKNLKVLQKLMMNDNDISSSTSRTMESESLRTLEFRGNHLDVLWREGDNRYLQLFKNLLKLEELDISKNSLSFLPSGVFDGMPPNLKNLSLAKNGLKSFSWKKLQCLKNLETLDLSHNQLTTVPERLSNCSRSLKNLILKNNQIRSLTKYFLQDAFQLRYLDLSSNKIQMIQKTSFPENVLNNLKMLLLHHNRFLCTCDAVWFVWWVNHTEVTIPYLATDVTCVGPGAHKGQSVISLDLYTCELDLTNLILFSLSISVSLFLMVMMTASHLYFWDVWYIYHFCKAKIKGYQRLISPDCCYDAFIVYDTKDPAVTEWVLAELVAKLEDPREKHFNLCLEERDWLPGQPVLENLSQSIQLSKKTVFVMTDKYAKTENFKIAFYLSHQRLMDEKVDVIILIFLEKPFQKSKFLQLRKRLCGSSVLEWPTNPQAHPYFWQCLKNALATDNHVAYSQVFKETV
Assay: HEK293-Blue hTLR7 reporter assay (QUANTI-BLUE, SEAP readout)
Type: cell-based
Design: host or cells: HEK293 (HEK-Blue-hTLR7)
Settings: HEK-Blue-hTLR7 cells, QUANTI-BLUE assay (A1-A76), 24 hrs
// EC50 lookup, one value per entry
MEASUREMENT_KIND: EC50 (nM)

{"COMPOUND": "CCCCOc1nc(N)c2ncc(Cc3ccc4c(c3)CN(C(C)C)CC4)n2n1 [Compound A9]", "MEASUREMENT_KIND": "EC50", "UNIT": "nM", "VALUE_QUALIFIER": ">", "OBSERVED_MEASUREMENT": 10000}
{"COMPOUND": "CCCCOc1nc(N)c2ncc(Cc3ccc(OC4C[C@H]5CC[C@@H](C4)N5)cc3F)n2n1 (stereo partly drawn) [Compound A38]", "MEASUREMENT_KIND": "EC50", "UNIT": "nM", "VALUE_QUALIFIER": "=", "OBSERVED_MEASUREMENT": 1860}
{"COMPOUND": "CCCCOc1nc(N)c2ncc(Cc3ccc4c(c3)CCN(C(C)C)C4)n2n1 [Compound A8]", "MEASUREMENT_KIND": "EC50", "UNIT": "nM", "VALUE_QUALIFIER": "=", "OBSERVED_MEASUREMENT": 3030}
{"COMPOUND": "CCCCOc1nc(N)c2ncc(Cc3cnc(OCCCN(C)C)c(Cl)c3)n2n1 [Compound A34]", "MEASUREMENT_KIND": "EC50", "UNIT": "nM", "VALUE_QUALIFIER": "=", "OBSERVED_MEASUREMENT": 3370}
{"COMPOUND": "CCCCOc1nc(N)c2ncc(Cc3ccc(CN4CCCCC4)cc3)n2n1 [Compound A5]", "MEASUREMENT_KIND": "EC50", "UNIT": "nM", "VALUE_QUALIFIER": "=", "OBSERVED_MEASUREMENT": 1270}
{"COMPOUND": "CCCCOc1nc(N)c2ncc(Cc3ccccc3CN3CCOCC3)n2n1 [Compound A14]", "MEASUREMENT_KIND": "EC50", "UNIT": "nM", "VALUE_QUALIFIER": ">", "OBSERVED_MEASUREMENT": 10000}
{"COMPOUND": "CCCCOc1nc(N)c2ncc(Cc3ccc(OC)cn3)n2n1 [Compound A50]", "MEASUREMENT_KIND": "EC50", "UNIT": "nM", "VALUE_QUALIFIER": ">", "OBSERVED_MEASUREMENT": 10000}
{"COMPOUND": "CCCCOc1nc(N)c2ncc(Cc3ccccc3CN3CCCC3)n2n1 [Compound A19]", "MEASUREMENT_KIND": "EC50", "UNIT": "nM", "VALUE_QUALIFIER": ">", "OBSERVED_MEASUREMENT": 10000}
{"COMPOUND": "CCCCOc1nc(N)c2ncc(Cc3ccc(CN4CCC(Oc5ccccc5)CC4)cc3)n2n1 [Compound A47]", "MEASUREMENT_KIND": "EC50", "UNIT": "nM", "VALUE_QUALIFIER": ">", "OBSERVED_MEASUREMENT": 10000}
{"COMPOUND": "CCCCOc1nc(N)c2ncc(Cc3ccc(OCCN)nc3)n2n1 [Compound A37]", "MEASUREMENT_KIND": "EC50", "UNIT": "nM", "VALUE_QUALIFIER": ">", "OBSERVED_MEASUREMENT": 10000}
{"COMPOUND": "CCCCNc1nc(N)c2ncc(Cc3ccc(CN4CCCC4)cc3)n2n1 [Compound A67]", "MEASUREMENT_KIND": "EC50", "UNIT": "nM", "VALUE_QUALIFIER": "=", "OBSERVED_MEASUREMENT": 585}
{"COMPOUND": "CCCCOc1nc(N)c2ncc(Cc3ccc(-c4ccc(CN5CCCC5)cc4)cc3)n2n1 [Compound A30]", "MEASUREMENT_KIND": "EC50", "UNIT": "nM", "VALUE_QUALIFIER": "=", "OBSERVED_MEASUREMENT": 3520}
{"COMPOUND": "CCCCOc1nc(N)c2ncc(Cc3ccc(CN4CCN(C(=O)CN(C)C)CC4)cc3)n2n1 [Compound A39]", "MEASUREMENT_KIND": "EC50", "UNIT": "nM", "VALUE_QUALIFIER": "=", "OBSERVED_MEASUREMENT": 543}
{"COMPOUND": "CCCCOc1nc(N)c2ncc(Cc3ccc(CN4CCN(CCCO)CC4)cc3)n2n1 [Compound A71]", "MEASUREMENT_KIND": "EC50", "UNIT": "nM", "VALUE_QUALIFIER": "=", "OBSERVED_MEASUREMENT": 1170}
{"COMPOUND": "CCCCOc1nc(N)c2ncc(Cc3cnc(OC4CCNCC4)c(Cl)c3)n2n1 [Compound A40]", "MEASUREMENT_KIND": "EC50", "UNIT": "nM", "VALUE_QUALIFIER": "=", "OBSERVED_MEASUREMENT": 602}
{"COMPOUND": "CCCCOc1nc(N)c2ncc(C(O)c3ccccn3)n2n1 (stereo not drawn) [Compound A74]", "MEASUREMENT_KIND": "EC50", "UNIT": "nM", "VALUE_QUALIFIER": ">", "OBSERVED_MEASUREMENT": 10000}
{"COMPOUND": "CCCCOc1nc(N)c2ncc(Cc3ccc(F)c(OCCCN(C)C)c3)n2n1 [Compound A24]", "MEASUREMENT_KIND": "EC50", "UNIT": "nM", "VALUE_QUALIFIER": ">", "OBSERVED_MEASUREMENT": 10000}
{"COMPOUND": "CCCCOc1nc(N)c2ncc(Cc3ccc(OCCCN4CCCC4)cc3)n2n1 [Compound A28]", "MEASUREMENT_KIND": "EC50", "UNIT": "nM", "VALUE_QUALIFIER": "=", "OBSERVED_MEASUREMENT": 1790}
